Literature-derived IC50 for Alpha-glucosidase MAL12 (Saccharomyces cerevisiae S288c, UniProt P53341) follows.
TEST_READOUT: IC50 (µM)

[[record]]
compound = "COc1ccc(C(=O)NC[C@@H]2O[C@H](CO)[C@@H](O)[C@H](O)[C@H]2O)c(OC)c1"
output_unit = "µM"
test_result = 1860

[[record]]
compound = "COC(=O)CC1Oc2ccccc2-c2cc(C)c3c(c21)C(=O)C(=O)N3C (stereo not drawn)"
output_unit = "µM"
test_result = 34.8

[[record]]
compound = "OCC(O)[C@H]1N[C@H](CO)[C@@H](O)[C@@H]1O (single isomer, unassigned)"
output_unit = "µM"
test_result = 220

[[record]]
compound = "COc1ccc(NC(=O)Cn2cc(Cn3c(-c4cccs4)nc(-c4ccccc4)c3-c3ccccc3)nn2)cc1"
output_unit = "µM"
test_result = 24.2

[[record]]
compound = "O=C(NC[C@@H]1O[C@H](CO)[C@@H](O)[C@H](O)[C@H]1O)c1ccc(O)cc1"
output_unit = "µM"
test_result = 1910

[[record]]
compound = "COc1ccc(C(=O)NC[C@@H]2O[C@H](CO)[C@@H](O)[C@H](O)[C@H]2O)cc1"
output_unit = "µM"
test_result = 231

[[record]]
compound = "CCOC(=O)C1=C(C)NC(C)=C(C(=O)OCC)C1c1ccc(O)c(O)c1"
output_unit = "µM"
test_result = 274

[[record]]
compound = "CO[C@@H]1O[C@H](Cn2cc(COC3CCCCO3)nn2)[C@H]2OC(C)(C)O[C@@H]12 (stereo partly drawn)"
output_unit = "µM"
test_result = 24.7

[[record]]
compound = "O=c1cc(-c2ccc(O)c(O)c2)c2c(O)cc(O)cc2o1"
output_unit = "µM"
test_result = 208

[[record]]
compound = "CO[C@@H]1O[C@H](Cn2cc(C3=CCCCC3)nn2)[C@H]2OC(C)(C)O[C@@H]12"
output_unit = "µM"
test_result = 3.8

[[record]]
compound = "CCOC(=O)C1=C(C)NC(C)=C(C(=O)OCC)C1c1ccc(Cl)cc1"
output_unit = "µM"
test_result = 72.4

[[record]]
compound = "CCOc1ccc(NC(=O)Cn2cc(Cn3c(-c4cccc(Cl)c4)nc(-c4ccccc4)c3-c3ccccc3)nn2)cc1"
output_unit = "µM"
test_result = 44.2

[[record]]
compound = "C=C1C(=O)O[C@@H]2C[C@@H](C)/C=C\\C(=O)[C@](C)(O)[C@H](OC(C)=O)[C@@H](OC(=O)/C(C)=C/C)[C@@H]12"
output_unit = "µM"
test_result = 280

[[record]]
compound = "CCOC(=O)C1=C(C)NC(C)=C(C(=O)OCC)C1CCc1ccccc1"
output_unit = "µM"
test_result = 112

[[record]]
compound = "CO[C@@H]1O[C@H](Cn2cc(COc3ccccc3)nn2)[C@H]2OC(C)(C)O[C@@H]12"
output_unit = "µM"
test_result = 5.7

[[record]]
compound = "CN1C(=O)C(=O)c2c1ccc1c2C(CC(=O)O)Nc2ccccc2-1 (stereo not drawn)"
output_unit = "µM"
test_result = 187

[[record]]
compound = "CC(=O)Oc1ccc(/C=C/C(=O)NC[C@@H]2O[C@H](CO)[C@@H](O)[C@H](O)[C@H]2O)cc1OC(C)=O"
output_unit = "µM"
test_result = 355

[[record]]
compound = "COc1ccc(CNC[C@@H]2O[C@H](CO)[C@@H](O)[C@H](O)[C@H]2O)cc1O"
output_unit = "µM"
test_result = 465

